- measuredOn: PKR WT (Homo sapiens)
- Sequence (P30613 whole entry): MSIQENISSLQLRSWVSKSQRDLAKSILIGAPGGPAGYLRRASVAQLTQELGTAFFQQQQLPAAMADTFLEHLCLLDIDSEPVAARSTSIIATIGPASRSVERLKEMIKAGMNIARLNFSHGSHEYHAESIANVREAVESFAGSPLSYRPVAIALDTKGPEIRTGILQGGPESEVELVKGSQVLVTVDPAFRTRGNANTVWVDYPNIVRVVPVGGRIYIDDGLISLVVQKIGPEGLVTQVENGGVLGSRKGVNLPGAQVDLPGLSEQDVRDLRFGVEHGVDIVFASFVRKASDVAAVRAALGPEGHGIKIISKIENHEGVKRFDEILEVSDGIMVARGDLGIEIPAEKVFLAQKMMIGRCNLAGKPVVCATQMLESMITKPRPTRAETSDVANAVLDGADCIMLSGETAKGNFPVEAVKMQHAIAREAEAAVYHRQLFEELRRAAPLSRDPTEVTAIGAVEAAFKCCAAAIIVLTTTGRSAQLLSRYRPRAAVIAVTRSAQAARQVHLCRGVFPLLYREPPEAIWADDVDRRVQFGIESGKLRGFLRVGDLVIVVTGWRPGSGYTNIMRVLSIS
- testDescription: PKR WT enzymatic AC50 assay
- Type: biochemical
- assayConditions: wild type PKR
Please go through the items and note down their AC50.

Recorded AC50 for O=C(c1ccc(NS(=O)(=O)c2cccc3scnc23)cc1)N1CCC(O)(CC2CC2(F)F)CC1 (centres unmarked) [Compound 432] , please? < 100 nM

Recorded AC50 for O=C(c1ccc(NS(=O)(=O)c2cccnc2)cc1)N1CCC(O)(Cc2ccccc2)CC1 [Compound 315] , please? 1010 to 10000 nM

Recorded AC50 for CC(F)(F)CCC1(O)CCN(C(=O)c2ccc(NS(=O)(=O)c3cccc4nccnc34)cc2OC(F)F)CC1 [Compound 436] , please? 101 to 1000 nM

Recorded AC50 for Cc1cccc(CC2(O)CCN(C(=O)c3ccc(NS(=O)(=O)c4cccc5cccnc45)cc3)CC2)c1 [Compound 118] , please? < 100 nM

Recorded AC50 for O=C(c1ncc(NS(=O)(=O)c2cccc3cccnc23)cn1)N1CCC(O)(c2ccccc2)CC1 [Compound 323] , please? > 10000 nM

Recorded AC50 for O=C(c1ccc(NS(=O)(=O)c2cccc3cnccc23)cc1)N1CCC(O)(c2ccccc2)CC1 [Compound 319] , please? > 10000 nM

Recorded AC50 for CC(C)CC1(O)CCN(C(=O)c2ccc(NS(=O)(=O)c3cccc4nccnc34)cc2OC(F)F)CC1 [Compound 213] , please? < 100 nM

Recorded AC50 for O=C(c1ccc(NS(=O)(=O)c2cccc3scnc23)cc1)N1CCC(O)(CCCC(F)F)CC1 [Compound 389] , please? < 100 nM

Recorded AC50 for CNc1nc2c(S(=O)(=O)Nc3ccc(C(=O)N4CCC(O)(CC(C)C)CC4)cc3)cccc2s1 [Compound 408] , please? < 100 nM

Recorded AC50 for O=C(c1ccc(NS(=O)(=O)c2cccc3cccnc23)c(OC(F)(F)F)c1)N1CCC(O)(c2ccccc2Cl)CC1 [Compound 270] , please? 101 to 1000 nM

Recorded AC50 for Nc1nc2c(S(=O)(=O)Nc3ccc(C(=O)N4CCC(O)(c5cccc(F)c5F)CC4)cc3)cccc2s1 [Compound 422] , please? < 100 nM

====

- measuredOn: PKR R532W (Homo sapiens, UniProt P30613, R532W)
- Sequence (P30613 whole entry R532W): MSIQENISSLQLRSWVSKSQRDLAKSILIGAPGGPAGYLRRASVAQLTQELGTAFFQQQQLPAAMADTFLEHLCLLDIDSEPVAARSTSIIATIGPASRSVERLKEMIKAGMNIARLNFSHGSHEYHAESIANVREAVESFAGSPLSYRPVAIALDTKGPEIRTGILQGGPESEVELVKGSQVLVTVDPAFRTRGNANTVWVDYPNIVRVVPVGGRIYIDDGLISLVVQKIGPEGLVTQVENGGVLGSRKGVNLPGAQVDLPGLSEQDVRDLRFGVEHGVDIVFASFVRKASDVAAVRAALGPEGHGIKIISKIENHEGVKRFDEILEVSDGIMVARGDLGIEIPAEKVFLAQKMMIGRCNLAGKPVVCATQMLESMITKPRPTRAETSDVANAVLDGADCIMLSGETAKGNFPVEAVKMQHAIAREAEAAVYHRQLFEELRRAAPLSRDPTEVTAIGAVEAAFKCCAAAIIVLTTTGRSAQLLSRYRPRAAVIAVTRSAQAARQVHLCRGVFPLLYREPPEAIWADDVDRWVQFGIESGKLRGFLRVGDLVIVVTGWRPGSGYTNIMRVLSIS
- testDescription: PKR Mutant Assay, AC50 against PKR R532W
- Format: biochemical
- assayConditions: mutant PKR R532W enzyme
endpointName: AC50

Recorded AC50 for O=C(c1ccc(NS(=O)(=O)c2cccc3cccnc23)cc1)N1CCC(O)(c2ncccc2Cl)CC1 , please? < 100 nM

Recorded AC50 for Cc1cccc(CC2(O)CCN(C(=O)c3ccc(NS(=O)(=O)c4cccc5cccnc45)cc3)CC2)c1 , please? < 100 nM

Recorded AC50 for Cc1cccc(C2(O)CCN(C(=O)c3ccc(NS(=O)(=O)c4cccc5cccnc45)cc3)CC2)n1 , please? 101 to 1000 nM

Recorded AC50 for CC(C)CC1(O)CCN(C(=O)c2ccc(NS(=O)(=O)c3cccc4sc(N)nc34)cc2)CC1 , please? < 100 nM

Recorded AC50 for O=C(c1ccc(NS(=O)(=O)c2cccc3nccnc23)cc1)N1CCC(O)(Cc2ccccc2C(F)(F)F)CC1 , please? < 100 nM

Recorded AC50 for CC(C)(C)CC1(O)CCN(C(=O)c2ccc(NS(=O)(=O)c3cccc4scnc34)cc2)CC1 , please? < 100 nM

Recorded AC50 for Cc1ncccc1C1(O)CCN(C(=O)c2ccc(NS(=O)(=O)c3cccc4cccnc34)cc2)CC1 , please? < 100 nM

Recorded AC50 for O=C(c1ccc(NS(=O)(=O)n2ccc3cccnc32)cc1)N1CCC(O)(c2ccccc2Cl)CC1 , please? > 10000 nM

Recorded AC50 for O=C(c1ccc(NS(=O)(=O)c2cccc(Cl)c2Cl)cc1)N1CCC(O)(Cc2ccccc2)CC1 , please? 101 to 1000 nM

Recorded AC50 for O=C(c1ccc(NS(=O)(=O)c2cccnc2)cc1)N1CCC(O)(Cc2ccccc2)CC1 , please? > 10000 nM

Recorded AC50 for O=C(c1ccc(NS(=O)(=O)c2cccc3cccnc23)cc1)N1CCC(O)(/C=C/C(F)F)CC1 , please? 101 to 1000 nM

Recorded AC50 for CC(C)CC1(O)CCN(C(=O)c2ccc(NS(=O)(=O)c3cccc4nccnc34)cc2OC(F)F)CC1 , please? < 100 nM

These data points were gathered from patent US9108921B2.
